Cited source: paper PMC8482776

# Tested on: T. rubrum (PTCC 5143)
# protocol description: Microdilution MIC90, strain K
# Assay type: cell-based, Trichophyton rubrum
# condition summary: Trichophyton rubrum, PTCC5143, 48 h, filamentous fungi, 48 h at 37 °C, triplicate
measurement name: MIC90 (µg/mL)
Write the number in µg/mL without appending the unit.

Asked: Query MIC90 for O=C(Nc1nnc(SCC(O)(Cn2cncn2)c2ccc(F)cc2F)s1)Nc1ccccc1C(F)(F)F (stereo not shown)
Given back: 8

Asked: Query MIC90 for O=C(Nc1cccc(Cl)c1)Nc1nnc(SCC(O)(Cn2cncn2)c2ccc(F)cc2F)s1 (stereo not shown)
Given back: 2

Asked: Query MIC90 for COc1ccc(NC(=O)Nc2nnc(SCC(O)(Cn3cncn3)c3ccc(F)cc3F)s2)cc1 (stereo not shown)
Given back: 2

Asked: Query MIC90 for O=C(Nc1ccc(F)cc1)Nc1nnc(SCC(O)(Cn2cncn2)c2ccc(F)cc2F)s1 (stereo not shown)
Given back: 4

Asked: Query MIC90 for O=C(Nc1cccc(F)c1)Nc1nnc(SCC(O)(Cn2cncn2)c2ccc(F)cc2F)s1 (stereo not shown)
Given back: 4

Asked: Query MIC90 for Cc1cccc(NC(=O)Nc2nnc(SCC(O)(Cn3cncn3)c3ccc(F)cc3F)s2)c1 (stereo not shown)
Given back: 16

Asked: Query MIC90 for O=C(Nc1cccc(C(F)(F)F)c1)Nc1nnc(SCC(O)(Cn2cncn2)c2ccc(F)cc2F)s1 (stereo not shown)
Given back: 8

Asked: Query MIC90 for O=C(Nc1ccc(Br)cc1)Nc1nnc(SCC(O)(Cn2cncn2)c2ccc(F)cc2F)s1 (stereo not shown)
Given back: 4

Asked: Query MIC90 for Cc1ccc(NC(=O)Nc2nnc(SCC(O)(Cn3cncn3)c3ccc(F)cc3F)s2)cc1 (stereo not shown)
Given back: 8
